# activity at 3.7037 µM values compiled below
System: Dictyostelium discoideum
protocol-summary: Infection assay: growth of the host amoeba D. discoideum (fluorescence) in infection
Type: cell-based
conditions-used: 72 h, read-out: median normalized residual growth, Dd in infection
metric-name: activity at 3.7037 µM (%)

{"compound": "Oc1ccc(/C=C/c2cc(O)c3c(c2)O[C@H](c2ccc(O)cc2)[C@H]3c2cc(O)c3c(c2)O[C@H](c2ccc(O)cc2)[C@H]3c2cc(O)c3c(c2)O[C@H](c2ccc(O)cc2O)[C@H]3c2cc(O)cc(O)c2)cc1", "metric-name": "activity at 3.7037 µM", "recorded-measurement": 92}
{"compound": "Oc1ccc(C=Cc2cc(O)cc3c2C(c2cc(O)cc(O)c2)C(c2ccc(O)c4c2OC(c2ccc(O)cc2O)C4c2cc(O)cc(O)c2)O3)cc1 (single isomer, unassigned; (-)) [Compound 11, (−)-Gnetuhainin M]", "metric-name": "activity at 3.7037 µM", "recorded-measurement": 85.9}
{"compound": "Oc1ccc(/C=C/c2cc(O)c3c(c2)O[C@@H](c2ccc(O)cc2)[C@@H]3c2cc(O)c3c(c2)O[C@H](c2ccc(O)cc2O)[C@H]3c2cc(O)cc(O)c2)cc1 [Compound 5, (−)-Latifolol]", "metric-name": "activity at 3.7037 µM", "recorded-measurement": 79.8}
{"compound": "Oc1cc(O)cc([C@H]2c3c(O)cc(/C=C/c4ccc(O)cc4O)cc3O[C@@H]2c2ccc(O)cc2O)c1 (relative stereo) [Compound 10, (−)-Gnetumontanin A]", "metric-name": "activity at 3.7037 µM", "recorded-measurement": 90.5}
{"compound": "Oc1ccc(/C=C/c2cc(O)c3c(c2)O[C@@H](c2ccc(O)cc2)[C@@H]3c2cc(O)c3c(c2)O[C@H](c2ccc(O)cc2)[C@H]3c2cc(O)cc(O)c2)cc1 [Compound 6, (−)-Gnetin E]", "metric-name": "activity at 3.7037 µM", "recorded-measurement": 92}
{"compound": "Oc1ccc(/C=C/c2cc(O)c3c(c2)O[C@@H](c2ccc(O)cc2)[C@@H]3c2cc(O)c3c(c2)O[C@@H](c2ccc(O)cc2O)[C@H]3c2cc(O)cc(O)c2)cc1 [Compound 4, (−)-Gnetoline A]", "metric-name": "activity at 3.7037 µM", "recorded-measurement": 85.1}
{"compound": "Oc1ccc(/C=C/c2cc(O)c3c(c2)O[C@H](c2ccc(O)cc2O)[C@@H]3c2cc(O)cc(O)c2)cc1 (relative stereo) [Compound 2, (+)-Gnetupendin C]", "metric-name": "activity at 3.7037 µM", "recorded-measurement": 86}
{"compound": "Oc1ccc(/C=C/c2cc(O)c3c(c2)O[C@@H](c2ccc(O)cc2O)[C@@H]3c2cc(O)cc(O)c2)cc1 (relative stereo) [Compound 1, (+)-Gnetin D]", "metric-name": "activity at 3.7037 µM", "recorded-measurement": 85.1}
{"compound": "Oc1ccc([C@@H]2Oc3cc(O)ccc3[C@H]3[C@H](c4cc(O)cc(O)c4)c4c(O)cc(O)cc4[C@H]32)cc1 [Compound 9, (−)-Gnemontanin G]", "metric-name": "activity at 3.7037 µM", "recorded-measurement": 99.6}
{"compound": "Oc1ccc(/C=C/c2cc(O)c3c(c2)O[C@H](c2ccc(O)cc2)[C@H]3c2cc(O)c3c(c2)O[C@H](c2ccc(O)cc2)[C@H]3c2cc(O)c3c(c2)O[C@H](c2ccc(O)cc2)[C@H]3c2cc(O)cc(O)c2)cc1", "metric-name": "activity at 3.7037 µM", "recorded-measurement": 92.1}
